experiment: resazurin metabolic signal in HepG2 cells – cell-based, resazurin fluorescence, 24 h, PK04 Diversity Set, profiling panel (AID 1172); details: HepG2 viability, higher = more signal; note: test concentration not given here
Response field label takes condition met when z-score is strictly below -0.6 and condition not met in all other cases.

compound="CN1CCC(c2ccc(CO)cc2)=CC1C1CC1 (stereo unspecified)" class="condition met"
compound=C[C@@H]1OC=C2[C@@H](O)[C@H]3O[C@H]3C(=O)[C@]23[C@H]1[C@H]1C2=C([C@@H](O)[C@H]4O[C@H]4C2=O)[C@@H]3O[C@@H]1C class="condition not met"
compound=COC(=O)[C@H]1[C@@H](O)[C@@]2(O)c3c(OC)cc(OC)cc3O[C@@]2(c2ccc(OC)cc2)[C@@H]1c1ccccc1 class="condition met"
compound="O=P(c1ccccc1)(c1ccccc1)N1CC2(CC2)CC(O)(c2ccccc2)C1 (stereo unspecified)" class="condition not met"
compound="CCCc1cc2c(n1CCO)C(C)C1CN(C(=O)c3ccccc3)C(C)(C(=O)OC)C21 (stereo unspecified)" class="condition met"
compound="OCc1ccc(C2=CC(c3cccs3)N(Cc3cccc(OC(F)(F)F)c3)CC2)cc1 (stereo unspecified)" class="condition not met"
compound=COC(=O)[C@@]1(Cc2ccc(F)cc2)[C@H]2c3cc(C(=O)N(C)C)[nH]c3C[C@H]2CN1C(=O)c1ccccc1 class="condition met"
compound=COC(=O)[C@H]1[C@H](c2ccccc2)C(=O)[C@]2(O)c3ccccc3O[C@@]12c1ccccc1 class="condition not met"
compound=COC(=O)NCC=Cc1nc(CCC=CC(=O)O[C@H]2CC3CC(=O)O[C@@H](C=CCC(C)C)C[C@@H]4CC[C@H](C)[C@@H](C[C@@H](OC)C[C@H](C2)O3)O4)co1 class="condition met"
compound=CCOC(=O)[C@H]1CC=C2C(=O)Oc3ccccc3[C@@H]21 class="condition not met"
compound="CCCc1cc2c(n1Cc1ccco1)C(C)C1CN(C(=O)c3ccccc3)C(C)(C(=O)OC)C21 (stereo unspecified)" class="condition met"
compound=CCOC(=O)[C@H]1CC=C2C(=O)Oc3ccc(Br)cc3[C@@H]21 class="condition not met"
compound=COC(=O)[C@@]1(Cc2ccccc2)[C@H]2c3cc(C(=O)N(C)C)n(C)c3C[C@H]2CN1C(=O)c1ccccc1 class="condition not met"
compound="CCCc1cc2c(n1Cc1ccc(C)cc1)C(C)C1CN(C(=O)c3ccccc3)C(C)(C(=O)OC)C21 (stereo unspecified)" class="condition not met"
compound=C[C@H]1O[C@H]2C3=C(C(=O)[C@@H]4O[C@@H]4[C@@H]3O)[C@@H]1[C@@H]1[C@@H](C)OC=C3[C@@H](O)[C@H]4O[C@H]4C(=O)[C@]312 class="condition met"
compound="CCCc1cc2c(n1Cc1cccc(Cl)c1)C(C)C1CN(C(=O)c3ccccc3)C(C)(C(=O)OC)C21 (stereo unspecified)" class="condition met"
compound=COC(=O)[C@@]1(Cc2ccccc2)[C@H]2c3cc(C(=O)N(C)C)[nH]c3C[C@H]2CN1C(=O)c1ccccc1 class="condition not met"
compound=C[C@@H]1Cc2c(cnc3c2CN(C)CC3)CO1 class="condition not met"
compound=COc1cc2c(cc1O)C=[N+](C)CC2 class="condition not met"
compound="C=C(CC1(C(C)NP(=O)(c2ccccc2)c2ccccc2)CC1)c1ccccc1 (stereo unspecified)" class="condition not met"
compound=COC(=O)[C@H]1C(=O)c2ccccc2O[C@@](C(=O)OC)(c2ccccc2)[C@@H]1c1ccccc1 class="condition not met"
